Just for reference, PubChem BioAssay is where these values come from.

experimental details: growth suppression of beta-catenin knockout HCT116, pilot screen, human colon tumor cells (AID 823);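 further: 0% = wells killed by 20 µM Hyamine and 100% = untreated DMSO cell wells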
test settings: CellTiter-Glo, 60 h, at 10 µM, stronger effect = lower value
Records with an inconclusive call do not appear.
measurement name: viability (%)
# number only, unit % dropped from output

O=C(NC1CCCCCCC1)c1cnccn1 :: 103

Query :: # input compound: COc1ccccc1CNC(=O)C1COc2ccccc2O1 (stereo unspecified) ; wanted: its viability
Result :: 98.8

Query :: // repeat for CSC(=NS(=O)(=O)c1ccc(C)cc1)SC and report
Result :: 94.6

Query :: // repeat for O=C(NCc1cccs1)C1CCN(S(=O)(=O)c2cccc3cccnc23)CC1 and report
Result :: 93

Query :: // repeat for Clc1ccc(-c2nc(-c3ccccn3)no2)cc1Cl and report
Result :: 72.6

Query :: // repeat for CC(=O)N1CCc2c(sc(NC(=O)c3ccc4c(c3)OCCO4)c2C#N)C1 and report
Result :: 35
